The measurements presented in this section are drawn from paper PMC10786891.

What Kd was measured for each of the following?
- experimental_target: T1, EsCas13d, nuclease-dead (Eubacterium siraeum, UniProt B0MS50, R295A;H300A;R849A;H854A)
- T1 sequence: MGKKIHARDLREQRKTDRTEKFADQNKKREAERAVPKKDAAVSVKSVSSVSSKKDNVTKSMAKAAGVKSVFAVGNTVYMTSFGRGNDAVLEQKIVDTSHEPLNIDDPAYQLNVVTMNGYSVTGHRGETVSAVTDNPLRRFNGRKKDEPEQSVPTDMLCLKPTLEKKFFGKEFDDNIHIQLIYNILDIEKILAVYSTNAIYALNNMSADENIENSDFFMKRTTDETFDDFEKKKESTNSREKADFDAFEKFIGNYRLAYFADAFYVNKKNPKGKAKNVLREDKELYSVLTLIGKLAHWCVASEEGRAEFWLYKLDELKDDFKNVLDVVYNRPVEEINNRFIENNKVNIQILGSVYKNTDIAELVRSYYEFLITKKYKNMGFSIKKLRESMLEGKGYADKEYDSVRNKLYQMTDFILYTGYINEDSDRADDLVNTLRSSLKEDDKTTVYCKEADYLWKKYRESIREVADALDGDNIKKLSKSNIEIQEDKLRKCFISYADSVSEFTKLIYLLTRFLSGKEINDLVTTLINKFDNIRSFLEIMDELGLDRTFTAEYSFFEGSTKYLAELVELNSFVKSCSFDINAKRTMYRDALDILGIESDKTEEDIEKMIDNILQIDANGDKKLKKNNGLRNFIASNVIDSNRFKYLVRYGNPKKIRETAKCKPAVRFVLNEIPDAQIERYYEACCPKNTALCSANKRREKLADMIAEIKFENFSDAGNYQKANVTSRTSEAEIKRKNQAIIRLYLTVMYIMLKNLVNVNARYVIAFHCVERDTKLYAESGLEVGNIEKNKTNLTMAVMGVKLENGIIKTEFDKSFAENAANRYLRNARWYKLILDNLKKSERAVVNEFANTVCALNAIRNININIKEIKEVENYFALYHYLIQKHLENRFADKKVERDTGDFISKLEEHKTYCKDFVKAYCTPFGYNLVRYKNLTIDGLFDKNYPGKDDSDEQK
- test: crRNA (strand 1, pre-loaded); Mg2+; 40 mM Tris-HCl pH 7.5, 150 mM NaCl, 6 mM MgCl2, 1 mM DTT, 0.1% Tween-20, 0.2 mg/ml BSA; 25 C; 10 min per concentration, then washed
- test_conditions: tags: His6-TwinStrep-SUMO cleaved; N-terminal SNAP kept (SNAP-Surface 488); label: 3' end held by stalled T7 RNA polymerase
Numeric answer plus unit only.

## Input Could you tell me which Kd is on file for target 1 MT 5'PFS UGC 3'PFS AUC (mixed) RNA 1: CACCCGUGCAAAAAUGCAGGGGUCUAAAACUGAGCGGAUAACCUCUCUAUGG RNA 2: GGGAAUGGAUCCACAUCUACGAAUUCUGCCCAUAGAGAGGUUAUCCGCUCAAUCAGAUCGGAAGAGCACACGU ?
## Output 52.5 nM

## Input Could you tell me which Kd is on file for target 2 MT 5'PFS UGC 3'PFS CGG (mixed) RNA 1: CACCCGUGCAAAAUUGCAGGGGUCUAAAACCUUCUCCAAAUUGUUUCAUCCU RNA 2: GGGAAUGGAUCCACAUCUACGAAUUCUGCAGGAUGAAACAAUUUGGAGAAGCGGAGAUCGGAAGAGCACACGU ?
## Output 38 nM

## Input Could you tell me which Kd is on file for target 2 MT 5'PFS AGA 3'PFS CGA (mixed) RNA 1: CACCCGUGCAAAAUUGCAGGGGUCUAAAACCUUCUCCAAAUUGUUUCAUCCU RNA 2: GGGAAUGGAUCCACAUCUACGAAUUCAGAAGGAUGAAACAAUUUGGAGAAGCGAAGAUCGGAAGAGCACACGU ?
## Output 5.5 nM

## Input Could you tell me which Kd is on file for target 2 MT 5'PFS UUA 3'PFS ACU (mixed) RNA 1: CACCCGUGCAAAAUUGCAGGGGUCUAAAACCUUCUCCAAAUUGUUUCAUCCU RNA 2: GGGAAUGGAUCCACAUCUACGAAUUCUUAAGGAUGAAACAAUUUGGAGAAGACUAGAUCGGAAGAGCACACGU ?
## Output 32 nM
